# Test system: PC-14
# testDetails: relative viability (nuclei count vs DMSO), 5 days (fraction); higher = more cells survive
# testSettings: first compound 0.03162 µM
observable: relative viability

Example entries and their recorded answers appear below.
# compound, relative viability
data = [
    ("O=c1cc(N2CCOCC2)oc2c(-c3cccc4c3sc3ccccc34)cccc12 + C[C@]1(O)C[C@@H](c2nc(-c3ccc4ccc(-c5ccccc5)nc4c3)c3c(N)nccn32)C1 [Linsitinib] (partner 1 µM)", 0.934),
    ("O=c1cc(N2CCOCC2)oc2c(-c3cccc4c3sc3ccccc34)cccc12 + CC(C)C[C@H](NC(=O)[C@H](Cc1ccccc1)NC(=O)c1cnccn1)B(O)O [Bortezomib] (partner 0.002 µM)", 0.763),
    ("O=c1cc(N2CCOCC2)oc2c(-c3cccc4c3sc3ccccc34)cccc12 + Cc1cc(Nc2cc(N3CCN(C)CC3)nc(Sc3ccc(NC(=O)C4CC4)cc3)n2)n[nH]1 [Tozasertib] (partner 0.1 µM)", 0.572),
]

Looking up O=c1cc(N2CCOCC2)oc2c(-c3cccc4c3sc3ccccc34)cccc12 + Nc1ncn([C@H]2C[C@H](O)[C@@H](CO)O2)c(=O)n1 [Decitabine] (partner 2 µM) , I found its relative viability recorded as 0.272

Looking up CCN(CC)CCCCNc1ncc2cc(-c3cc(OC)cc(OC)c3)c(NC(=O)NC(C)(C)C)nc2n1 + CS(=O)(=O)N1CCN(Cc2cc3nc(-c4cccc5[nH]ncc45)nc(N4CCOCC4)c3s2)CC1 [Pictilisib] (partner 1 µM) , I found its relative viability recorded as 0.624
